TESTED_ON: T1, Catalytic subunit of calcineurin (CaNA), residues 2-347 with substitutions Y341S, L343A and M347D (UniProt Q08209 2-347)
T1 construct: range 2-347; Expressed as a cleavable GST fusion and purified on a GST column and by size exclusion; The microarray used GST-tagged CaN; also called Cn
METHOD_DESCRIPTION: FP competition assay against FITC-PVIVIT (100 nM) on CaNA (4 uM); single site inhibition fit
MEASUREMENT_TYPE: pIC50
Keep in mind that pIC50 stands for -log10 of concentration in molar terms.

In [3]: df
Out[3]:
                                     binder  observed_result
0  Ac-ADGAGVGIVITVTEAE-NH2 (designed binder) [rbmAKAP79_2]             4.16

Query :: I would be grateful if you could share the reported pIC50 for Ac-AAGAGVGIVITVTEAE-NH2 (designed binder) [rbmAKAP79] .
Result :: 4.24

Query :: I would be grateful if you could share the reported pIC50 for Ac-ASVSNPEITVTSAETE-NH2 (designed binder) [rbmRIPOR2] .
Result :: 4.10

Query :: I would be grateful if you could share the reported pIC50 for Ac-HVSSSPRITITPTQHR-NH2 (designed binder) [rbmRIPOR2_2] .
Result :: 3.70

Query :: I would be grateful if you could share the reported pIC50 for Ac-ADEAIPEITITSAELP-NH2 (designed binder) [rbmTRESK_2] .
Result :: 4.22

meta.source: patent US20250326797A1
